From: patent US20160200813A1

// values below are reported fold over isotype control
target: T1, Cynomolgus monkey LRP-8 expressed on HEK293 cells (cynomolgus monkey); test: cell-based binding on CYNO LRP8-HEK293, supernatant 1:125
T1 construct: whole, on cells; also called cyno LRP-8; cLRP-8
Kindly provide the numeric value in fold only, without the unit symbol.

Recorded fold over isotype control, per entry:
binder="anti-LRP-8 BGK.5D10.E4 [r/m IgG2a/K] (antibody, V domains shown, Rat variable domains on mouse IgG2a/kappa) VH: QVQLRETGPDLVQPTQTLSLTCTVSGFSLTNYPVQWVRQPPGSGLEWLGIMWPSGAADFNPALKSRLSISRDTSKSQFFLRMDNLQTDDTAIYFCARGRGYSSPYAMDAWGQGTSVTVSS VL: DIQMTQSPASLSASLGETVSIECLASEDIYNNLAWYQQKPGKSPHLLIHFTSNLQDGVPSRFSGSGSGTQYSLKINSLESEDGATYFCLQDSEYPLTFGSGTKLEIK" unit_text=fold experimental_result=28.2
binder="anti-LRP-8 BGK.2C8.E6.D3 [r/m IgG2a/K] (antibody, V domains shown) VH: QVTLKESGPGILQPSQTLSLTCTFSGFSLNTYGMGVGWVRQPSGKGLEWLANIWWDDDKFYNPSLKNRLTVSKDTSNNQAFLRITNGDTADTATYFCARILGEDIGGALDAWGQGTSVTVSS VL: DTVLTQSPALAVSPGERVSISCRASEGVNSYMHWYQQNPGQQSKLLIYRTSNLASGVPARFGGSGSGTDFTLTIDPVEADDTATYFCQQSWNDPPTFGGGTKLELK" unit_text=fold experimental_result=13.7
binder="anti-LRP-8 BGK.6E3.F4 [r/m IgG2a/K] (antibody, V domains shown, Rat variable domains on mouse IgG2a/kappa) VH: EVQLVESGGGLVQPGKSLKLSCAASGFTFSDYNMAWVRQAPKKGLEWVATIMYDGSRTFYRDSVKGRYTFSRDNAKSTLYLQMDSLRSEDTATYYCATGRNWFAYWGQGTLVTVSS VL: DIIMTQSPSSLAVSAGETVTINCKSSQSLLSSGKQKNYLAWYQQKPGQSPKLLIYLASTRESGVPDRFIGSGSGTDFTLTISSMQAEDLAIYYCQQHYDTPLTFGSGTKLEIK" unit_text=fold experimental_result=0.87

Please look at the following binder next.
[Q] Fill in fold over isotype control for record BGK-7F7 (GENOVAC candidate clone of Table 17) (antibody, V domains shown, here the candidate from rat immunization before chimerization, tested at dilutions) VH: QVTLKESGPGILQPSQTLSLTCTFSGFSLSTYGLGVGWIRQPSGKGLEWLANIWWDDAKYYNPSLKNRLTISKDTSNNQAFLKIPNVDTADTARYYCARTTKPYYFDYWGQGVMVTVSS VL: HFVLAQPNSVSTNLGSTVKLSCKRSTANIGSNYVNWYQQHEGRSPTTLIYRDDRRPDGVPDRFSGSIDRSSNSALLTINNVQTEDEADYFCQSYSSGINIFGGGTKLTVL
[A] 1.5
